Just for reference, ChEMBL document CHEMBL1126653 is where these values come from.

# System: Staphylococcus aureus
# assay-notes: Compound tested for the activity against Staphylococcus aureus strain 6
# Assay type: functional
Peptide text beside a SMILES is read from it.
measured-quantity: MIC (mg/L)
One number for each entry, in mg/L.

Param readout = MIC; param system = Staphylococcus aureus; param query = CC(C)C[C@H](NC(=O)[C@H](CCCCN)NC(=O)[C@H](CC(C)C)NC(=O)[C@H](Cc1c[nH]c2ccccc12)NC(=O)[C@H](CCCCN)NC(=O)[C@H](CCCCN)NC(=O)[C@H](C)NC(=O)[C@H](Cc1c[nH]c2ccccc12)NC(=O)[C@H](CCCCN)NC(=O)[C@H](CCCCN)NC(=O)[C@H](Cc1c[nH]c2ccccc12)NC(=O)[C@H](CC(C)C)NC(=O)[C@@H](N)CCCCN)C(=O)N[C@@H](Cc1c[nH]c2ccccc12)C(=O)N[C@@H](CCCCN)C(=O)N[C@@H](C)C(=O)N[C@@H](Cc1c[nH]c2ccccc12)C(=O)O (H-KLWKKWAKKWLKLWKAW-OH) ; response: value
12.5
